Collected TGI values appear next to each entry.
Test system: K-562 leukemia
Assay: NCI tumour cell line growth inhibition, 48 h

// worked examples, TGI included
> print(dat)
                                    compound     result
 1  COC[n+]1cc2cc(OC)c(OC)cc2c2ccc3cc(OC)c(OC)cc3c21   > 100 µM
 2  Cc1c2c(n(CCc3ccccc3)c1C)NN=C(C#N)S2(=O)=O   > 100 µM
 3  COc1cc(-c2coc3c(OC)c(OC4OC(CO)C(O)C(O)C4O)c(OC)cc3c2=O)cc(OC)c1C (configuration not stated)  > 70.4 µM
 4  O=S1(=O)CCN(Cc2ccccc2)/C1=N\S(=O)(=O)c1ccc(Cl)cc1   > 100 µM
 5  [N-]=[N+]=NC1C(Br)C(=O)NC(=O)N1[C@H]1C[C@H](O)[C@@H](CO)O1 (some centres not stated)   > 100 µM
 6  CC(C)(C)N1NC1C1NN1C(C)(C)C (configuration not stated)   > 100 µM
 7  CC1(C)OCC(C2OC(N3O[C@H](CI)C[C@@H]3c3ccccc3)C3OC(C)(C)OC23)O1 (some centres not stated)   > 100 µM
 8  CC1NC(/C(=C/c2ccccc2O)NC(=O)c2ccccc2)OC1=O (configuration not stated)    > 50 µM
 9  Nc1c(-c2nc3ccccc3[nH]2)sc(=S)n1-c1ccccc1   > 100 µM
10  O=C(O)C12C3CCCC1C2CC3 (configuration not stated)   > 100 µM

In: Would you mind telling me what TGI value was observed for O=C1C(=O)N(c2ccc(Cl)c(Cl)c2)C(=O)C(=O)C1c1nc2ccccc2o1 ?
Out: > 100 µM

In: Now give it for CCN(CC)CCCCCCCNc1c2ccc(Cl)cc2nc2ccc(OC)cc12 too.
Out: 0.835 µM

In: Please answer likewise for O=[N+]([O-])C1C2C=CC(C2)[C@H]1c1ccccc1Cl (some centres not stated)
Out: > 100 µM

In: Consider next the compound OCCCCC#Cc1ccccc1C#Cc1ccccc1C(F)(F)F in the same way.
Out: 13.9 µM

In: Would you kindly repeat that for CC(C)C(N=Cc1ccccc1O)C(=O)O (configuration not stated) ?
Out: > 100 µM

In: Try the compound C[C@H]1CCC/C=C/[C@@H]2C[C@H](O)C[C@H]2[C@H](O)[C@@H](S(=O)CCN(C)C)CC(=O)O1 (some centres not stated)
Out: > 100 µM

In: Then what about the compound O=C(/C=C/c1ccc(O)cc1)NCCc1ccc(O)cc1 ?
Out: > 12.5 µM

In: Next up: CCN(CC)CCOc1ccc(/C=C2\CC3C4CC=C5C[C@@H](N6CCCC6)CC[C@]5(C)C4CC[C@]3(C)[C@H]2O)cc1OC (some centres not stated)
Out: > 100 µM

In: Another compound to look at: CC(C(=O)Oc1ccc2ccccc2c1-c1c(O)ccc2ccccc12)c1ccccc1 (configuration not stated)
Out: 86.7 µM

In: And the next one, Cc1c2cc[nH]c(=O)c2cc2c(=O)c3cnccc3[nH]c12 ?
Out: > 100 µM

In: Next compound up: CC1NOC(=O)C1N=Nc1ccccc1Cl (configuration not stated)
Out: > 100 µM

In: Input CN(C)CCO/N=C1/C=C2CC[C@H]3[C@@H]4CC[C@H](O)[C@@]4(C)CC[C@@H]3[C@@]2(C)CC1
Out: 56.8 µM

====

Each entry below carries its recorded TGI.
Tested on: KM12 colon
Experiment: NCI tumour cell line growth inhibition, 48 h

> print(dat)
                                   compound  subject.of.test    result
1  COc1cccc(-c2nc3c(C(=O)NCCN(C)C)cccc3[nH]2)c1       KM12 colon   > 72 µM
2  O=[N+]([O-])C1C2C=CC(C2)[C@H]1c1ccccc1Cl (some centres undefined)       KM12 colon  > 100 µM
3         O=c1c2cccnc2nc2ccc3c[nH][nH]c3c12       KM12 colon   > 10 µM

In: Given the entry Cc1cc(C)nc(Nc2nc3ccc([N+](=O)[O-])cc3[nH]2)n1 , report its measured TGI.
Out: > 100 µM

In: Similarly, CC(C)C(N=Cc1ccccc1O)C(=O)O (centres undefined) ?
Out: > 100 µM

In: What do you have for Cc1cc2c(F)c(Oc3ncnn4cc(OC[C@@H](C)OC(=O)[C@H](C)N)c(C)c34)ccc2[nH]1 ?
Out: 20.5 µM

In: Another compound: S=C(Nc1ccc(Cl)cc1)Nc1ccc(-c2nc3ccccc3[nH]2)cc1
Out: > 62 µM

In: Queued: N#CS/C(Cl)=C(/C(Cl)=C(Cl)Cl)[N+](=O)[O-]
Out: > 100 µM

In: Queued: CC1(C)OCC(CO)(Nc2nc(N3CC3)nc(N3CC3)n2)CO1
Out: 43.3 µM

In: Same question, CNC(=O)c1cccc(-c2ccc3c(N4CCOC[C@@H]4C)nc(N4CCOC[C@@H]4C)nc3n2)c1 this time
Out: > 100 µM

In: Try the compound O=C(Nc1nc(C23CC4CC(CC(C4)C2)C3)cs1)c1cc2cc(Br)cc(Br)c2oc1=O
Out: > 100 µM

====

Tested on: T-47D breast
Experiment: NCI tumour cell line growth inhibition, 48 h
Measured TGI, listed per entry.

Worked set:
> print(dat)
                                   compound    result
1  O=C1c2ccccc2-c2ccc(N=[N+]([O-])c3ccc4c(c3)C(=O)c3ccccc3-4)cc21  > 100 µM
2            C[N+]1(C)CCC(C#N)(c2ccccc2)CC1  > 100 µM
3  CCOC(=O)n1cncc1CC(NC(=O)Cc1c(C(=O)C=C(C)C)[nH]c2ccccc12)C(=O)OC (stereo not drawn)   7.46 µM
4  CCOC(=O)CCC(NC(=O)c1ccc(Nc2nc3cc(C(F)(F)F)ccc3nc2-c2ccccc2)cc1)C(=O)OCC (stereo not drawn)  > 100 µM

In: I have this compound here, CCOC(=O)c1c(NC(=O)Nc2ccccc2)c(C(N)=O)c2n1CCCCC2 , and I need its recorded TGI.
Out: > 100 µM

====

Tested on: MDA-MB-231 breast
Assay: NCI tumour cell line growth inhibition, 48 h
A collection of molecules and their measured TGI
Just the number in µM, nothing appended.

The following molecules have reported results that may help.
molecule	quantitative.result
Cc1cc(Cl)ccc1N=NC(=O)NNc1ccc(Cl)cc1C	26.6
COc1ccc(OC)c2nc3c(C(=O)NCCN(C)C)cccc3nc12	19.3
O=C1c2ccccc2-c2c1c1ccccc1c(=O)n2CCCN1CCOCC1	34.1
Nc1ccccc1C#C/C=C\C#Cc1ccc(Cl)cc1Cl	35.6

In: What does the data say about its TGI? Entry: O=C(Oc1ccc(CCl)cc1)c1ccccc1
Out: 0.311

In: Query CN(C)CCNc1ccc2c(=O)n(CCN(C)C)c(=O)n3c4ccc(N)cc4c(=O)c1c23 next
Out: 0.866

In: CC(C)CC1c2[nH]c3ccccc3c2C[C@H]2C(=O)NC(CCC(=O)OC(C)(C)C)C(=O)N12 (some centres not stated) ?
Out: 79.1

In: Cool, now CCN(CC)CCCCCCCNc1c2ccc(Cl)cc2nc2ccc(OC)cc12
Out: 3.86

In: Now try C=C1C(=O)OC2CC3(CO3)C3C(O)C(O)CC3(C)CC12 (configuration not stated) .
Out: 60.5

====

System: SNB-19 CNS
Test: NCI tumour cell line growth inhibition, 48 h
Quick reference for GI50 among some compounds

Below, each entry is followed by its recorded GI50 result.
> print(dat)
                                   compound    result
1  O=C(C(Br)Br)C(Br)C(Br)c1ccccc1 (stereo not given)   17.4 µM
2  CCN(CC)CCCCCCCNc1c2ccc(Cl)cc2nc2ccc(OC)cc12   1.75 µM
3  CC[N+](CC)(CC)CCCn1c2c(c3ccccc3c1=O)C(=O)c1ccccc1-2   31.6 µM
4  COc1ccc(-c2nc(-c3ccccc3)c(-c3ccccc3)n2C2CC2)cc1OC1CCCC1  > 165 µM
5  C/C=C(\C)C(=O)O[C@H]1C=CC(=O)O[C@H]1CNC(=O)[C@H](C)O   30.5 µM

In: What GI50 value was documented for this compound, O=C1OC(=O)C2C1C1(c3ccccc3)C(c3ccccc3)=C(c3ccccc3)C2(c2ccccc2)S1=O (stereo not given) ?
Out: > 100 µM

In: Try O=C(NOCC1CC1)c1ccc(F)c(F)c1Nc1ccc(I)cc1Cl next.
Out: 1.38 µM

In: Now the same for N=C(N)CCCCCCCCC(=N)N
Out: 22.5 µM

In: Now try Cc1cc(S(=O)(=O)Nc2nnc(-c3ccccc3)c(-c3ccccc3)n2)c(SCc2ccccc2)cc1Cl .
Out: 25.7 µM

In: Further, for Cc1ccc2c(N)c(C(=O)N[C@H]3CCc4cc(N5CC6CCC(C5)N6)ccc4C3)sc2n1 ?
Out: 0.325 µM
